- System: U-251
- protocol: Antiproliferative activity against human U251 cells after 24 hrs by MTT assay
- Type: functional, cell-based
- condition summary: U-251, 24 h
This listing pairs compounds with measured IC50.
measured property: IC50

1. COc1ccc(-c2coc3c4c(ccc3c2=O)OC(C)(C)C=C4)cc1 = > 10 µM
2. COc1cc(OC)c(-c2coc3cc(OCc4ccc([N+](=O)[O-])cc4)ccc3c2=O)cc1OC = 9.4 µM
3. COc1ccc(-c2coc3c4c(ccc3c2=O)OC(C)(C)C=C4)cc1OC = > 10 µM
4. CC1(C)C=Cc2c(ccc3c(=O)c(-c4cccc(C=O)c4)coc23)O1 = > 10 µM
5. CC1(C)C=Cc2c(ccc3c(=O)c(-c4cccc(C(F)(F)F)c4)coc23)O1 = > 10 µM
6. CC1(C)C=Cc2c(ccc3c(=O)c(-c4ccc5c(c4)OCO5)coc23)O1 = > 10 µM
7. CCOc1ccc(-c2coc3c4c(ccc3c2=O)OC(C)(C)C=C4)cc1 = > 10 µM
8. COc1cc(OC)c(-c2coc3cc(OCc4ccccc4C#N)ccc3c2=O)cc1OC = 0.98 µM
9. COc1cc(-c2coc3c4c(ccc3c2=O)OC(C)(C)C=C4)cc(OC)c1OC = > 10 µM
10. COc1cc(OC)c(-c2coc3cc(OCc4ccccc4C(F)(F)F)ccc3c2=O)cc1OC = > 10 µM
11. COc1cc(OC)c(-c2coc3cc(OCc4ccccc4F)ccc3c2=O)cc1OC = 2.89 µM
12. CC1(C)C=Cc2c(ccc3c(=O)c(-c4ccc(C#N)cc4)coc23)O1 = > 10 µM
13. C#CCOc1ccc2c(=O)c(-c3cc(OC)c(OC)cc3OC)coc2c1 = 6.45 µM
14. COc1cc(OC)c(-c2coc3cc(OCc4cccc(C(F)(F)F)c4)ccc3c2=O)cc1OC = > 10 µM
15. CC(=O)c1ccc(-c2coc3c4c(ccc3c2=O)OC(C)(C)C=C4)cc1 = > 10 µM
16. CC1(C)C=Cc2c(ccc3c(=O)c(-c4ccc(Cl)c(C(F)(F)F)c4)coc23)O1 = > 10 µM
17. COc1cc(OC)c(-c2coc3cc(OCc4cccc(Br)c4)ccc3c2=O)cc1OC = > 10 µM
18. COc1cc(OC)c(-c2coc3cc(OCc4cccc(F)c4)ccc3c2=O)cc1OC = 3.51 µM
19. COc1cc(OC)cc(-c2coc3c4c(ccc3c2=O)OC(C)(C)C=C4)c1 = > 10 µM
20. COc1cccc(-c2coc3c4c(ccc3c2=O)OC(C)(C)C=C4)c1F = > 10 µM
21. CC1(C)C=Cc2c(ccc3c(=O)c(-c4ccc(C(F)(F)F)cc4)coc23)O1 = 5.85 µM

###

- protocol: Antiproliferative activity against human HCT116 cells after 24 hrs by MTT assay
- Format: functional, cell-based
- condition summary: HCT-116, 24 h
So basically, if IC50 comes in under 3 µM it's criterion met, and if it's 3 µM or more it's criterion not met.

1. CCOc1ccccc1-c1coc2c3c(ccc2c1=O)OC(C)(C)C=C3 = criterion not met
2. COc1cc(OC)c(-c2coc3cc(OCc4cccc(F)c4)ccc3c2=O)cc1OC = criterion not met
3. COc1cccc(-c2coc3c4c(ccc3c2=O)OC(C)(C)C=C4)c1F = criterion not met
4. COc1cc(OC)c(-c2coc3cc(OCc4cccc(C(F)(F)F)c4)ccc3c2=O)cc1OC = criterion not met
5. COc1cc(OC)c(-c2coc3cc(OCc4ccccc4)ccc3c2=O)cc1OC = criterion met
6. COc1ccc2c(=O)c(-c3cc(OC)c(OC)cc3OC)coc2c1 = criterion not met
7. COc1cc(OC)c(-c2coc3cc(OCc4ccccc4C)ccc3c2=O)cc1OC = criterion met

###

- System: U-251
- protocol: Antiproliferative activity against human U251 cells after 24 hrs by MTT assay
- Format: functional, cell-based
- condition summary: U-251, 24 h
pIC50: −log10 of the molar value.
This listing pairs molecules with measured pIC50.
measured property: pIC50

1. COc1ccc(OC)c(-c2coc3c4c(ccc3c2=O)OC(C)(C)C=C4)c1 = < 5.00
2. COc1ccc(-c2coc3c4c(ccc3c2=O)OC(C)(C)C=C4)c(OC)c1 = < 5.00
3. CC1(C)C=Cc2c(ccc3c(=O)c(-c4ccc5c(c4)OCCO5)coc23)O1 = < 5.00
4. CC1(C)C=Cc2c(ccc3c(=O)c(-c4ccc(C=O)cc4)coc23)O1 = < 5.00
5. COc1cc(OC)c(-c2coc3cc(OCC=C(C)C)ccc3c2=O)cc1OC = 5.46
6. COc1ccc(-c2coc3c4c(ccc3c2=O)OC(C)(C)C=C4)c(OC)c1OC = < 5.00
7. COc1cccc(C(=O)Oc2ccc3c(=O)c(-c4cc(OC)c(OC)cc4OC)coc3c2)c1 = < 5.00
8. COc1ccccc1-c1coc2c3c(ccc2c1=O)OC(C)(C)C=C3 = < 5.00
9. CC1(C)C=Cc2c(ccc3c(=O)c(-c4ccc(C(F)(F)F)cc4Cl)coc23)O1 = 5.60
10. COc1cc(OC)c(-c2coc3cc(OCCN4CCOCC4)ccc3c2=O)cc1OC = < 5.00

###

- System: HepG2
- protocol: Antiproliferative activity against human HepG2 cells after 24 hrs by MTT assay
- Type: functional, cell-based
- condition summary: HepG2, 24 h
measured property: IC50 (nM)

1. COc1cc(OC)c(-c2coc3cc(OCC=C(C)C)ccc3c2=O)cc1OC = 280
2. COc1cc(OC)c(-c2coc3cc(OCc4ccccc4Br)ccc3c2=O)cc1OC = 2180
3. COc1cc(OC)c(-c2coc3cc(OCc4ccc(C(F)(F)F)cc4)ccc3c2=O)cc1OC = 890
4. COc1cc(OC)c(-c2coc3cc(OCc4ccc(Br)cc4)ccc3c2=O)cc1OC = 1050
5. COc1cc(OC)c(-c2coc3cc(OCc4cccc(F)c4)ccc3c2=O)cc1OC = 1230
6. COc1cc(OC)c(-c2coc3cc(OCc4ccc([N+](=O)[O-])cc4)ccc3c2=O)cc1OC = 2500
7. COc1cc(OC)c(-c2coc3cc(OCc4ccccc4C)ccc3c2=O)cc1OC = 1860
8. COc1cc(OC)c(-c2coc3c4c(ccc3c2=O)OC(C)(C)C=C4)cc1OC = 1770

###

- Tested on: U-251
- protocol: Antiproliferative activity against human U251 cells after 24 hrs by MTT assay
- Format: functional, cell-based
- condition summary: U-251, 24 h
This listing pairs compounds with measured IC50.
measured property: IC50 (µM)

1. COc1cc(OC)c(-c2coc3c4c(ccc3c2=O)OC(C)(C)C=C4)cc1OC = 4.1
2. COc1cc(OC)c(-c2coc3cc(OCc4ccc(C(F)(F)F)cc4)ccc3c2=O)cc1OC = 3.75
3. COc1cc(OC)c(-c2coc3cc(OCc4ccc(F)cc4)ccc3c2=O)cc1OC = 3.2
4. C=CCOc1ccc2c(=O)c(-c3cc(OC)c(OC)cc3OC)coc2c1 = 5.9
5. COc1cc(OC)c(-c2coc3cc(OCc4ccccc4)ccc3c2=O)cc1OC = 6.75
6. COc1cc(OC)c(-c2coc3cc(OCc4ccc(Cl)cc4)ccc3c2=O)cc1OC = 0.47

###

This listing pairs molecules with measured pIC50.
- System: HepG2
- protocol: Antiproliferative activity against human HepG2 cells after 24 hrs by MTT assay
- Assay type: functional, cell-based
- condition summary: HepG2, 24 h
pIC50: −log10 of the molar value.
measured property: pIC50

1) COc1cc(OC)c(-c2coc3cc(OCc4cccc(Br)c4)ccc3c2=O)cc1OC = 6.06
2) COc1cc(OC)c(-c2coc3cc(OCc4ccccc4C(F)(F)F)ccc3c2=O)cc1OC = 5.18
3) COc1cc(OC)c(-c2coc3cc(OCc4ccc(C#N)cc4)ccc3c2=O)cc1OC = 5.37
4) COc1cc(OC)c(-c2coc3cc(OCc4ccccc4Cl)ccc3c2=O)cc1OC = 5.77
5) C=CCOc1ccc2c(=O)c(-c3cc(OC)c(OC)cc3OC)coc2c1 = 5.46
6) COc1cc(OC)c(-c2coc3cc(OCc4ccccc4)ccc3c2=O)cc1OC = 5.88
7) COc1cc(OC)c(-c2coc3cc(OCc4ccccc4F)ccc3c2=O)cc1OC = 5.89
8) C#CCOc1ccc2c(=O)c(-c3cc(OC)c(OC)cc3OC)coc2c1 = 5.31
9) COc1cc(OC)c(-c2coc3cc(OCc4cccc(C(F)(F)F)c4)ccc3c2=O)cc1OC = 6.21

###

- protocol: Antiproliferative activity against human HCT116 cells after 24 hrs by MTT assay
- Assay type: functional, cell-based
- condition summary: HCT-116, 24 h
measured property: IC50

1) COc1ccc(-c2coc3c4c(ccc3c2=O)OC(C)(C)C=C4)cc1 = > 10 µM
2) CC1(C)C=Cc2c(ccc3c(=O)c(-c4ccc(O)cc4)coc23)O1 = > 10 µM
3) CC1(C)C=Cc2c(ccc3c(=O)c(-c4ccc5c(c4)OCO5)coc23)O1 = > 10 µM
4) COc1cc(OC)c(-c2coc3cc(OCCN4CCOCC4)ccc3c2=O)cc1OC = > 10 µM
5) CC1(C)C=Cc2c(ccc3c(=O)c(-c4ccc5c(c4)OCCO5)coc23)O1 = > 10 µM
6) COc1cc(OC)c(-c2coc3cc(OCc4ccccc4Cl)ccc3c2=O)cc1OC = 2.45 µM
7) CCOc1ccc(-c2coc3c4c(ccc3c2=O)OC(C)(C)C=C4)cc1 = > 10 µM
8) COc1ccccc1-c1coc2c3c(ccc2c1=O)OC(C)(C)C=C3 = > 10 µM
9) CC1(C)C=Cc2c(ccc3c(=O)c(-c4ccc(C#N)cc4)coc23)O1 = > 10 µM
10) CC1(C)C=Cc2c(ccc3c(=O)c(-c4ccc(Cl)c(C(F)(F)F)c4)coc23)O1 = > 10 µM
11) COc1cc(OC)c(-c2coc3cc(OCc4ccccc4F)ccc3c2=O)cc1OC = 2.9 µM
12) CC1(C)C=Cc2c(ccc3c(=O)c(-c4cccc(C(F)(F)F)c4)coc23)O1 = > 10 µM
13) COc1cc(OC)c(-c2coc3cc(OCc4cccc(Br)c4)ccc3c2=O)cc1OC = 1.2 µM
14) COc1cc(OC)c(-c2coc3cc(OCc4ccccc4C#N)ccc3c2=O)cc1OC = > 10 µM
15) C=CCOc1ccc2c(=O)c(-c3cc(OC)c(OC)cc3OC)coc2c1 = 6.6 µM
